For each of the compounds below, state its IC50.
- system under test: SARS-CoV-2 NSP3 macrodomain (Mac1) (Severe acute respiratory syndrome coronavirus 2, UniProt P0DTD1)
- assay summary: biochemical
- Type: binding
- measurement setup: Dose-response, SARS CoV-2 macrodomain HTRF assay; read-out: IC50

Consider the compound shown here: O=C(Nc1ccsc1C(=O)O)c1ccc2c(c1)OCO2 What is its recorded IC50?
> 1000 µM

Proceed to CC(C)n1nnnc1SCc1c(C(=O)O)sc2cccc(F)c12
> 1000 µM

Proceed to O=C(O)C(c1ccccc1)n1sc2ccccc2c1=O (stereo not drawn)
> 1000 µM

----------
- system under test: SARS-CoV-2 NSP3 macrodomain (Mac1), P43 crystal form (Severe acute respiratory syndrome coronavirus 2, UniProt P0DTD1)
- Assay type: binding
- measurement setup: crystal soak concentration 20 mM, DMSO background map, event 1
For each of the molecules below, state its PanDDA run, DMSO background map: 1-BDC.
Answer with the value's number alone.

Consider the molecule shown here: CC1CCN(C(=O)c2ccc3c(c2)nc(CO)n3C)CC1C(=O)O (stereo not drawn) What is its recorded PanDDA run, DMSO background map: 1-BDC?
0.34

Proceed to CC1CC(C(=O)O)CCN1C(=O)c1ccc2c(c1)NC(=O)CO2 (stereo not drawn)
0.19

Proceed to O=C1CCc2cc(C(=O)N3CC(C(=O)O)CCC34CCCC4)c(F)cc2N1 (stereo not drawn)
0.07

Proceed to OCC(Cc1ccccc1)Nc1ncnc2[nH]ccc12 (stereo not drawn)
0.25

Proceed to CC(C)n1nnnc1SCc1c(C(=O)O)sc2cccc(F)c12
0.34

Proceed to O=C(O)C1CCCN1S(=O)(=O)c1cccc2nsnc12 (stereo not drawn)
0.22

----------
- assay summary: in vitro
- measurement setup: human, Caco-2, Ratio (B-A/A-B)
assay endpoint: efflux ratio at 1 h

Consider the compound shown here: CC(C)(O)[C@H]1CCCN1c1ncnc2[nH]ccc12 What is its recorded efflux ratio at 1 h?
0.71

Proceed to CC(c1ccccc1)C(CO)Nc1ncnc2[nH]ccc12 (centres unmarked)
0.75

----------
- system under test: SARS-CoV-2 NSP3 macrodomain (Mac1), P43 crystal form (Severe acute respiratory syndrome coronavirus 2, UniProt P0DTD1)
- Type: binding
- measurement setup: crystal soak concentration 20 mM, DMSO background map, event 1
For each of the compounds below, state its PanDDA run, DMSO background map: 1-BDC.

Consider the compound shown here: COc1ccc(NC(=O)NC2CCCC2)cc1-n1nnnc1C [AVI-311] What is its recorded PanDDA run, DMSO background map: 1-BDC?
0.12

Proceed to O=C(Nc1ccsc1C(=O)O)c1ccc2c(c1)OCO2 [AVI-316]
0.12

Proceed to CNc1ccc(NS(=O)(=O)c2cc3cccc(C)c3s2)cn1 [AVI-345]
0.26

Proceed to Cc1cc2c(=O)n(CCN3C(=O)c4ccccc4S3(=O)=O)nnc2s1 [AVI-341]
0.19

Proceed to O=C(O)C(c1ccccc1)n1sc2ccccc2c1=O (centres unmarked) [AVI-288]
0.37

----------
- system under test: SARS-CoV-2 NSP3 macrodomain (Mac1), P43 crystal form (Severe acute respiratory syndrome coronavirus 2, UniProt P0DTD1)
- Format: binding
For each of the molecules below, state its Occupancy difference (refined_occupancy - 2*(1-BDC)).
Answer with the value's number alone.

Consider the molecule shown here: CC(O)C1CCCN1c1ncnc2[nH]ccc12 (centres unmarked) What is its recorded Occupancy difference (refined_occupancy - 2*(1-BDC))?
18

Proceed to CC(C)n1nnnc1SCc1c(C(=O)O)sc2cccc(F)c12
0

Proceed to OCC1CC=CCN1c1ncnc2[nH]ccc12 (centres unmarked)
18

Proceed to C[C@H]1CC[C@H](CO)N(c2ncnc3[nH]ccc23)C1 (racemic)
18

Proceed to CC1(C)CCN(c2ncnc3[nH]ccc23)C(CO)C1 (centres unmarked)
0

Proceed to OC1(CNc2ncnc3[nH]ccc23)CC2CCC1CC2 (centres unmarked)
0

Proceed to OCC1C=CCCN1c1ncnc2[nH]ccc12 (centres unmarked)
0

Proceed to OC1(CNc2ncnc3[nH]ccc23)CCC(F)(F)CC1
0

Proceed to CC(C)C1CCCN1c1ncnc2[nH]ccc12 (centres unmarked)
14

Proceed to CC(C)(O)C1C2CCC2CN1c1ncnc2[nH]ccc12 (centres unmarked)
20

Proceed to Cc1c[nH]c2ncnc(NCC3(O)CCSCC3)c12
0

Proceed to O=C(O)C(F)(F)F.OC[C@H](Cc1ccc(O)cc1)Nc1ncnc2[nH]ccc12
10

Proceed to CC(C)(O)C1C2CCCCC2CN1c1ncnc2[nH]ccc12 (centres unmarked)
10

Proceed to CN(CC1(O)CCOCC1)c1ncnc2[nH]ccc12
0

Proceed to OC1(CNc2ncnc3[nH]ccc23)CCCSC1 (centres unmarked)
0

Proceed to O=S1(=O)CCCC(O)(CNc2ncnc3[nH]ccc23)C1 (centres unmarked)
14

Proceed to C[C@@H]1CCN(c2ncnc3[nH]ccc23)[C@H](CO)C1 (racemic)
0

Proceed to CC(O)C(C)Nc1ncnc2[nH]ccc12 (centres unmarked)
0

Proceed to O[C@H]1CC[C@H]2CCN(c3ncnc4[nH]ccc34)[C@H]21
12

Proceed to CNc1ccc(NS(=O)(=O)c2cc3cccc(C)c3s2)cn1
0

Proceed to OC1(CNc2ncnc3[nH]ccc23)CCOCC1
0

Proceed to CC(C)(O)C1N(c2ncnc3[nH]ccc23)CCC1(C)C (centres unmarked)
8

Proceed to O=C1CCc2cc(C(=O)N3CC(C(=O)O)CCC34CCCC4)c(F)cc2N1 (centres unmarked)
0

Proceed to CC(C)(CO)Nc1ncnc2[nH]ccc12
16

Proceed to Cc1c[nH]c2ncnc(NCC3(O)CCC(C)CC3)c12 (centres unmarked)
0

Proceed to OC1(CNc2ncnc3[nH]ccc23)CCSCC1
0

Proceed to OC1(CNc2ncnc3[nH]ccc23)CCCCC1
16

Proceed to Cc1c[nH]c2ncnc(NCC3(O)CCOCC3)c12
0

Proceed to OC1(CNc2ncnc3[nH]ccc23)COC2CC1C2 (centres unmarked)
0

Proceed to OC1CCN(c2ncnc3[nH]ccc23)C1 (centres unmarked)
10

Proceed to OC1CCC(O)(CNc2ncnc3[nH]ccc23)CC1 (centres unmarked)
0

Proceed to CC(C)(C)C1CCCN1c1ncnc2[nH]ccc12 (centres unmarked)
0
